A collection of sequences and their measured binding signal
# TARGET_ENTITY: OsSMF1 (Oryza sativa, UniProt Q6ZLB0 1-436)
# Sequence: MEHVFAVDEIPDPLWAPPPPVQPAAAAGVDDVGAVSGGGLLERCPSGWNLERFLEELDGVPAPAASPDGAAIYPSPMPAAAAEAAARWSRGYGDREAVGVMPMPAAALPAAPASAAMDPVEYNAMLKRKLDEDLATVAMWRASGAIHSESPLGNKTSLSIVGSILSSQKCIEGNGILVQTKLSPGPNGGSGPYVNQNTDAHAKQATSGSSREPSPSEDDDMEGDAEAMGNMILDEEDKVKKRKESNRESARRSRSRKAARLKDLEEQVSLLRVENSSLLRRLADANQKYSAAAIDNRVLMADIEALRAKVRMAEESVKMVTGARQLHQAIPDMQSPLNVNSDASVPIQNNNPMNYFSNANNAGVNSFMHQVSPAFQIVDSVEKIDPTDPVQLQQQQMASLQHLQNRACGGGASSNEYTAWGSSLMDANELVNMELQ
# ASSAY_METHOD_TEXT: protein-binding microarray (RPBM); PBS, 2% BSA, 51.3 ng/ul salmon testes DNA, 50 uM zinc acetate, 200 nM TF, 25 C, 1 h; high values mean tight binding
# CONDITION_PARAMETERS: protein: recombinant; tags: N-terminal polyhistidine and DsRed monomer fusion (pET32a); chain copies: 2; label: CyDye5-dUTP incorporated in the synthesized complementary strand; 3' TTTTT single-stranded linker to array surface; dsDNA, one strand shown
In all, about 39,000 sequences were measured (“fluorescence intensity (a.u.)”: median about 4,300, highest 2% from about 39,000 on). Many of the other results were omitted from the sample, so the highest values are more common in it than they were.
MEASUREMENT_LABEL: binding signal

CGGGTAGGCGAACACGTCGCTGACGCCGCACCGCTCCAGCCGGAGTCACCTAGTGCAG: 6760 fluorescence intensity (a.u.)
GTCTCCGATGCCCCGATGCCGCCGCGTCGCTGGCCTGATTCGGAGTCACCTAGTGCAG: 3390 fluorescence intensity (a.u.)
CTCCCTAGTCCACAAAACCTAGTGACGCGGCGAAACCCAACGGAGTCACCTAGTGCAG: 5660 fluorescence intensity (a.u.)
CCGACAAAAGATGGTTTCTCCATCAGTGAAGACACAATGTCGGAGTCACCTAGTGCAG: 19500 fluorescence intensity (a.u.)
TGTAAGCATCAGCATGTCAAGGTTAACACCTCACTATCTCCGGAGTCACCTAGTGCAG: 4630 fluorescence intensity (a.u.)
CCATCCACCATTCACTTTCCCACCTACCTCCACTATTTATCGGAGTCACCTAGTGCAG: 3430 fluorescence intensity (a.u.)
GTGGTACACGCATGCTGACTAATTAAGACCGACAGAATCCCGGAGTCACCTAGTGCAG: 3390 fluorescence intensity (a.u.)
CGGAATGTCTCCGCGGAAGATGCCCAAGGAATCGCCTGGCCGGAGTCACCTAGTGCAG: 39500 fluorescence intensity (a.u.)
AACGTCAAGTACTCACGTGGTCCACGAATATTTAAGCCTACGGAGTCACCTAGTGCAG: 4480 fluorescence intensity (a.u.)
GACGACTGCTGGTACACGGACATGAGGCTGCAGCCGACGACGGAGTCACCTAGTGCAG: 3480 fluorescence intensity (a.u.)
GGAGGAAAATGGCCCTGATCAGCATCAGGGCAAGTACTATCGGAGTCACCTAGTGCAG: 3200 fluorescence intensity (a.u.)
ATGTCTCGTTATCTCCTAAACATGTCATTACACTGGAAACCGGAGTCACCTAGTGCAG: 3240 fluorescence intensity (a.u.)
ACCACACACACACTGACACTGTGACACAACACAACACGGCCGGAGTCACCTAGTGCAG: 6920 fluorescence intensity (a.u.)
ATTTAGTGCTAAATATGTAGTTTCATGATACATCATGTTACGGAGTCACCTAGTGCAG: 3850 fluorescence intensity (a.u.)
CTATTGTATGAATTGGCTATAGATGATTTGGAGGCAGTAGCGGAGTCACCTAGTGCAG: 3800 fluorescence intensity (a.u.)
GTAAGAATTGGCTGTTAGATTGGCTATAAATGAATTGGAGCGGAGTCACCTAGTGCAG: 50800 fluorescence intensity (a.u.)
TGTATGGGCCTTACGTCAGCACGGCCCAGTTGCTGGTTTTCGGAGTCACCTAGTGCAG: 17700 fluorescence intensity (a.u.)
TGTCACGAAAATCTTAATATTCATTTGGAGAAAAGAACGGCGGAGTCACCTAGTGCAG: 49000 fluorescence intensity (a.u.)
GTATTGTGTGTATTTATACATCATGAAAGAATAGAATAAACGGAGTCACCTAGTGCAG: 28600 fluorescence intensity (a.u.)

Source: paper PMC7819943
